- Target Desc: HLA-A*31:01
- Experiment Description: IEDB peptide-MHC binding, purified MHC/direct/fluorescence; filed as Kd, often an IC50 or EC50 that approximates it; bounds were set here for any values at or beyond the usual limits of such assays
- Protocol Conditions: source organism: Brucella abortus
pKd: −log10 of the molar value.
Reported Metric: pKd

Memo: AENGWGFYF , reported pKd: ≤ 4.70

###

- Target Desc: HLA-A*32:01
- Experiment Description: IEDB peptide-MHC binding, purified MHC/competitive/radioactivity; filed as Kd, often an IC50 or EC50 that approximates it; bounds were set here for any values at or beyond the usual limits of such assays
- Protocol Conditions: source organism: Dengue virus 1 Brazil/97-11/1997
Reported Metric: pKd
To interpret pKd, take it as minus log10 of a concentration measured in moles per litre.

Memo: KQIQKVETW , reported pKd: 7.31

src = the Immune Epitope Database (IEDB)
